The origin of these recorded values is BindingDB's records for patent US12496348.

Target: CREB-binding protein (Homo sapiens)
Sequence (Q92793 whole entry): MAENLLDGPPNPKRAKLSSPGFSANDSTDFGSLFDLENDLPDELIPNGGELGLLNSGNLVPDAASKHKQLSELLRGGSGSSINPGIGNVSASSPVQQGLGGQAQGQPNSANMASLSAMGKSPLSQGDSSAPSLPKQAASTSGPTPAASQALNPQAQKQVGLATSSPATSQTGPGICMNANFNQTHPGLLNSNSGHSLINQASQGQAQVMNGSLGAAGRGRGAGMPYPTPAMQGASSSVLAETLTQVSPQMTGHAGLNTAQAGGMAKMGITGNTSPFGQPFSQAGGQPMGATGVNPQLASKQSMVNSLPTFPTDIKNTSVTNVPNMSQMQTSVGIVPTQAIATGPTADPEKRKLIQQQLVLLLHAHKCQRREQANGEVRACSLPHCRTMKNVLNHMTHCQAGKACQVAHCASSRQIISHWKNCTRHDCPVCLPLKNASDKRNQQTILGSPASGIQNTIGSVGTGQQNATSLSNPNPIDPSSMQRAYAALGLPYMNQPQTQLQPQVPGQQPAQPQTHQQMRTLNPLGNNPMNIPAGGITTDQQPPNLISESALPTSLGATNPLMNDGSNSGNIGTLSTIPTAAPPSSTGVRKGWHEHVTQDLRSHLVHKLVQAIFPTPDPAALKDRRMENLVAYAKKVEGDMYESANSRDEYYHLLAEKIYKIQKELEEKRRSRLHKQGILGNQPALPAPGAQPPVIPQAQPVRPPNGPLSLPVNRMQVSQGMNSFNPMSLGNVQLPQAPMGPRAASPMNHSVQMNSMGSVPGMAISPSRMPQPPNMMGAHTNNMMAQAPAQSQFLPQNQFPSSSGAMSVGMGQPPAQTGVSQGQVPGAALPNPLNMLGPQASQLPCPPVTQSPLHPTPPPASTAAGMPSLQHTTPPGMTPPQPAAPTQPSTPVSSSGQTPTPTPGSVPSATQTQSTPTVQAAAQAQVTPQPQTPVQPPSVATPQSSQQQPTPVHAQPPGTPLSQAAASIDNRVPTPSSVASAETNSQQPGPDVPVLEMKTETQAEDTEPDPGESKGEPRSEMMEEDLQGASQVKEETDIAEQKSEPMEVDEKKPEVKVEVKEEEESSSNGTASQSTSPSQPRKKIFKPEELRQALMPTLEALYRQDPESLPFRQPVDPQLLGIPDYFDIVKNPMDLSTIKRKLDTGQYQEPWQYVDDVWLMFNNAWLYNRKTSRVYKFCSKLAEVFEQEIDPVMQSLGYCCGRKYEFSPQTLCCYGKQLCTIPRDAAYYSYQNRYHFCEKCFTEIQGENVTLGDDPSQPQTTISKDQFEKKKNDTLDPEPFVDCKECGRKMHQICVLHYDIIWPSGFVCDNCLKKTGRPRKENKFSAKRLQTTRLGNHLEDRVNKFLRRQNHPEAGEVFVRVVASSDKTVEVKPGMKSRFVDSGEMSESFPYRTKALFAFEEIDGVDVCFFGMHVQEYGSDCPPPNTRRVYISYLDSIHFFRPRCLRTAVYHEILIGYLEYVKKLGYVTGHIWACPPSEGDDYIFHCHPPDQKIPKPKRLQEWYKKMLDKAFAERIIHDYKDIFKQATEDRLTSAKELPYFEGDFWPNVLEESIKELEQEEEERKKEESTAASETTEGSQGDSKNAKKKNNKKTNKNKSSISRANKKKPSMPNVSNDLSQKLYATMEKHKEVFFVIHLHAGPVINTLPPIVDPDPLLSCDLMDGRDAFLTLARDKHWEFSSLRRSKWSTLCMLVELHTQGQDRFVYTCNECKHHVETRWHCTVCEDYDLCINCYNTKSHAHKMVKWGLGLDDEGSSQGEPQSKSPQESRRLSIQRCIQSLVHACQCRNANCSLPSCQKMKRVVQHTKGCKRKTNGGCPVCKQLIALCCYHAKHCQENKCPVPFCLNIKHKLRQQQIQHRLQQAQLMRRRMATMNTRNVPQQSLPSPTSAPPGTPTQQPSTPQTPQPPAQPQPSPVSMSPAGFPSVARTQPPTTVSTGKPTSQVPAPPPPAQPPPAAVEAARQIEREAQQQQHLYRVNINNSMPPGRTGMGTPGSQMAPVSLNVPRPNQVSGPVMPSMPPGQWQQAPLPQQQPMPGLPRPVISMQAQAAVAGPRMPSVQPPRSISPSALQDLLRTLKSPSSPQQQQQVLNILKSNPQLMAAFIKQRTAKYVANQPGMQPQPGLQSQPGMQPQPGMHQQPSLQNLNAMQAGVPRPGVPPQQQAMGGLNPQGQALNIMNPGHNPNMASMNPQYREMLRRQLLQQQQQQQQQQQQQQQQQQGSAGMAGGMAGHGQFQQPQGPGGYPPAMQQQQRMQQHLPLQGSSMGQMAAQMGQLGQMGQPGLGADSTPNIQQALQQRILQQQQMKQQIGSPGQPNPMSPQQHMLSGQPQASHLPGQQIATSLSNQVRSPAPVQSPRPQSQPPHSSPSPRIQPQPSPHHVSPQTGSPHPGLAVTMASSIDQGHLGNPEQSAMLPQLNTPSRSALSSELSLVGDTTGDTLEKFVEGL
Assay: CBP (Bromodomain) AlphaScreen Assay
ASSAY_READOUT: pIC50
Answers are plain numbers, as −log10 of the molar value.

Recorded result, Cc1noc(C)c1-c1ccc2nc(-c3ccc(N4CCN(C(=O)CCCCCCCCCCCNc5ccc6c(c5)C(=O)N(C5CCC(=O)NC5=O)C6=O)CC4)cc3)c(NC3CCCCC3)n2c1 (stereo unspecified) , pIC50: 4.72
